Listed here are compounds together with their documented max response.
Test system: CRL-7250
Experiment: Cytotoxic Profiling of Annotated Libraries Using Quantitative High-Throughput Screening (AID 1296008); also: nearly all actives have a fitted effect of over 60% in size; as to max response: % is scaled to controls: 0 for no effect and ±100 for the full control effect
Conditions: Five cell lines viability, CellTiter-Glo ATP luminescence, 48-72 h; active compounds read low
Inconclusive results are not listed.
Write the value in % as a bare number.

For orientation, consider the following solved cases.
| Compound | max response [%] |
| --- | --- |
| CC(=O)O[C@@H]1[C@@H](O)[C@H](O[C@H]2CC[C@]34C[C@]35CC[C@]3(C)[C@@H]([C@@]6(C)CC[C@@H](C(C)(C)O)O6)[C@@H](O)C[C@@]3(C)[C@@H]5C[C@H](O[C@@H]3O[C@H](CO)[C@@H](O)[C@H](O)[C@H]3O)[C@H]4C2(C)C)OC[C@H]1O | 1.83 |
| COC(=O)C1=CO[C@@H](O[C@@H]2O[C@H](CO[C@@H]3O[C@H](COC(=O)/C=C/c4cc(OC)c(O)c(OC)c4)[C@@H](O)[C@H](O)[C@H]3O)[C@@H](O)[C@H](O)[C@H]2O)[C@@H]2C(CO)=CC[C@H]12 | -3.63 |

CRL-7250 assay, compound `Cc1cc(C(=O)N2Cc3cnn(C)c3Nc3ccccc32)ccc1CNC(=O)N1CCC[C@H]1C(=S)N1CCCN(C)CC1` , recorded max response = 2.05

Per the reported CRL-7250 data, CC1(C)CC[C@]2(C(=O)OC3OC(CO)C(O)C(O)C3O)CC[C@]3(C)C(=CCC4[C@@]5(C)CC[C@H](OC6OC(C(=O)O)C(O)C(OC7OC(CO)C(O)C(O)C7O)C6O)C(C)(C)C5CC[C@]43C)C2C1 (stereo not given in full) has max response of 1.42

Tested on CRL-7250, the item CC(=O)CCC1=C(C)C(O[C@@H]2O[C@H](CO)[C@@H](O)[C@H](O)[C@H]2O)C(O)CC1(C)C (stereo not given in full) showed max response equal to -13.4

###

Tested on: Nanoluciferase (engineered Oplophorus gracilirostris luciferase)
Experiment: Primary Nanoluciferase (NLuc) qHTS assay for identification of artifact compounds. (AID 1845222);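 also: NLuc secreted into diluted conditioned medium of S16 cells; 0% = DMSO and -100% = no enzyme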
Conditions: NLuc-conditioned medium, Nano-Glo luminescence, 5 min; series mostly up to 54.1 µM
Calls of active or inactive are those of the source. The call rests on the fitted dose curve; in most records, active means well fitted inhibition curve with a large enough effect; inconclusive means small, poorly fitted or top-dose-only effect; inactive means flat fitted curve, though single readings scatter.

| Compound | Tgt | activity, negative = inhibition |
| --- | --- | --- |
| Cc1c(CN2CCN(C(=O)C(C)O)CC2)sc2c(N3CCOCC3)nc(-c3cnc(N)nc3)nc12 (stereo not drawn) | Nanoluciferase (engineered Oplophorus gracilirostris luciferase) | inactive |
| CC[C@]1(O)CC2CN(CCc3c([nH]c4ccccc34)[C@@](C(=O)OC)(c3cc4c(cc3OC)N(C=O)[C@H]3[C@@](O)(C(=O)OC)[C@H](OC(C)=O)[C@]5(CC)C=CCN6CC[C@]43[C@@H]65)C2)C1 (stereo partly drawn) | Nanoluciferase (engineered Oplophorus gracilirostris luciferase) | inactive |
| C=C1C[C@]23C[C@H]1CC[C@H]2C1=C[C@H]2OC(=O)[C@@](C)([C@H]1[C@@H]3C(=O)O)[C@H]2O | Nanoluciferase (engineered Oplophorus gracilirostris luciferase) | inactive |

###

Target: Calcium and integrin-binding protein 1 (Homo sapiens) (UniProt Q99828)
Sequence (Q99828 whole entry, looked up): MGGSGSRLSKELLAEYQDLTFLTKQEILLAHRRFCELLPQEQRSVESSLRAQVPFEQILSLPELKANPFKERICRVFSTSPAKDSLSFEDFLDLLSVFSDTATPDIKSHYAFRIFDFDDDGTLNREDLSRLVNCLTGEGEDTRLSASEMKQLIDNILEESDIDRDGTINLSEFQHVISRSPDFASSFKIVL
Test: Primary qHTS for Identification of Calcium Integrin Binding Protein 1 (CIB1) Competitor (AID 1508620);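 also: GST tagged CIB1 binding a fluorescein labelled alphaIIb integrin peptide tracer; top concentration of the series differs between compounds; % is scaled to controls: 0 for no effect and ±100 for the full control effect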
Settings: CIB1-GST / FITC-alphaIIb peptide fluorescence polarization; series mostly up to 114 µM
Inconclusive results are not listed. The source made the active and inactive calls. The call rests on the fitted dose curve; in most records, active means well fitted inhibition curve with a large enough effect; inconclusive means small, poorly fitted or top-dose-only effect; inactive means flat fitted curve, though single readings scatter.
Property label: activity change, negative = inhibition

| Molecule | activity change, negative = inhibition |
| --- | --- |
| COc1c2c(c(C)c3c1C(=O)OC3)O[C@@]1(C)CCC3(C(C)(C)O)OC(=O)CC[C@]3(C)[C@H]1C2 (stereo not given in full) | inactive |
| COc1cc(O)c2c(c1)C1=C[C@H](O)[C@@H](O)C[C@]1(C)OC2=O | inactive |
| CC(=O)O[C@@H]1[C@H](O[C@@H]2O[C@@H](CO)[C@H](O)[C@H]2O)[C@@H](O[C@@H]2O[C@@H](C)[C@H](O[C@@H]3OC[C@@H](O)[C@H](O)[C@H]3O)[C@@H](O)[C@H]2O)[C@H](OC(=O)[C@]23CCC(C)(C)C[C@H]2C2=CCC4[C@@]5(C)CC[C@H](O[C@@H]6O[C@H](C(=O)O)[C@@H](O)[C@H](O)[C@H]6O[C@@H]6O[C@H](CO)[C@H](O)[C@H](O)[C@H]6O)[C@@](C)(C=O)C5CC[C@@]4(C)[C@]2(C)CC3)O[C@@H]1C (stereo not given in full) | -9.52% [at 12.4 µM] (inactive) |
| C=CC1C(OC2OC(CO)C(O)C(O)C2O)OC=C(C(=O)OC)C1CC(=O)OCC1C(C)C(O)CC1C(CO)COC(=O)CC1C(C(=O)O)=COC(OC2OC(CO)C(O)C(O)C2O)/C1=C\C (stereo not given) | inactive |

Looking up `CCOCc1nc2c(N)nc3ccccc3c2n1CC(C)(C)O` , I see its activity change, negative = inhibition listed as inactive

###

System: PA-1
Experiment: Primary qHTS to identify gynecologic anti-cancer compounds using libraries of approved drugs and bioactive compounds (AID 1345084); also: nearly all actives have a fitted effect of over 55% in size
Settings: Gynecologic cancer cell panel viability, ATPlite luminescence, 48 h; series mostly up to 57.5 µM
Source text: National Center for Advancing Translational Sciences [NCATS] Assay Overview: Chemotherapeutic drug responses vary from cancer to cancer and from patient to patient. […] ATPlite is a luminescence based assay reliant on the conversion of a luciferase substrate to light in the presence of ATP. As a cytotoxic compound will suppress growth and decrease the number of cells, the concentration of ATP will decrease, and less light signal will be detected in the well. […]
Records with an inconclusive call do not appear. Activity calls are given as the source filed them. Calls come from the whole dose curve; as a rule, active = well fitted cell-killing curve with a large enough effect; inconclusive = small, poorly fitted or top-dose-only effect, or effect the other way; inactive = flat fitted curve, though single readings scatter.
Respond only with the outcome that fits, drawn from active, inactive

Recorded results for 5 compounds are shown here.
| Compound | Label class |
| --- | --- |
| COc1cc(C2c3cc4c(c(O)c3CC(CO)C2C(=O)O)OCO4)cc(OC)c1O (centres undefined) | active |
| CC(O)/C=C/C1C(C)C(O[C@@H]2O[C@H](CO)[C@@H](O)[C@H](O)[C@H]2O)C(O)CC1(C)C (some centres undefined) | inactive |
| CC1=CCC(C(C)(C)O[C@@H]2O[C@H](CO[C@@H]3O[C@@H](C)[C@H](O)[C@@H](O)[C@H]3O)[C@@H](O)[C@H](O)[C@H]2O)CC1 (some centres undefined) | inactive |
| COc1ccc(CNC(=O)c2cc(-c3cncc(C)c3)ncc2-c2nccs2)nc1OC | inactive |
| CCC(C)C(=O)O[C@H]1CCC=C2C=C[C@H](C)[C@H](CC[C@@H](O)C[C@@H](O)CC(=O)O)[C@H]21 (some centres undefined) | inactive |

Would you mind telling me which call this test gave `CC(C)N(CCCCOCC(=O)NS(C)(=O)=O)c1cnc(-c2ccccc2)c(-c2ccccc2)n1` ?
inactive

Test call for this compound, please: CC(C)CCC(=O)CC1c2ccccc2C(=O)N1c1ccc2ccc(Cl)nc2n1 (centres undefined)
inactive

Which outcome was assigned to CC1(C(=O)O)CCCC2(C)C3=CCC4CC3(CCC12)CC4CO (centres undefined) in this test?
inactive

Name the outcome recorded for `CCO[C@@H]1OC(=O)C[C@@H]1NC(=O)[C@@H]1CCCN1C(=O)[C@@H](NC(=O)c1ccc(N)c(Cl)c1)C(C)(C)C` in the assay.
inactive

###

Test system: HEK293
Test: Cytotoxic Profiling of Annotated Libraries Using Quantitative High-Throughput Screening (AID 1296008); also: nearly all actives have a fitted effect of over 60% in size
Settings: Five cell lines viability, CellTiter-Glo ATP luminescence, 48-72 h
Results filed as inconclusive are left out. The source made the active and inactive calls. Calls come from the whole dose curve; as a rule, active = well fitted inhibition curve with a large enough effect; inconclusive = small, poorly fitted or top-dose-only effect; inactive = flat fitted curve, though single readings scatter.
Bench note: report the call from class 1 for active, class 0 for inactive

| Compound | Tgt | Label class |
| --- | --- | --- |
| N=c1nc2n(cc1F)C1OC(CO)C(O)C1O2 (centres undefined) | HEK293 | class 1 |

GET /call?item= CC(C)C(CO)Nc1nc(Nc2cc(N)cc(Cl)c2)c2ncn(C(C)C)c2n1 (centres undefined) returns the recorded outcome of this test.
class 1

Outcome? `O=C(O)c1ccccc1NC(=O)N1CCC(c2ccccc2C(F)(F)F)CC1`
class 0

What did the test return for `Cc1cc(Nc2cc(N3CCN(C)CC3)nc(/C=C/c3ccccc3)n2)n[nH]1` ?
class 1

Just curious, what result did `CNC(=O)c1cccc(-c2ccc3c(N4CCOC[C@@H]4C)nc(N4CCOC[C@@H]4C)nc3n2)c1` get here?
class 1

What outcome does the record of this test show for `COc1cc2c(cc1OC)[C@@H]1[C@H](O)[C@@H](OC)C=C3CCN(C2)[C@H]31` ?
class 1

Which outcome was assigned to `CC(C)N(CCCCOCC(=O)NS(C)(=O)=O)c1cnc(-c2ccccc2)c(-c2ccccc2)n1` in this test?
class 0

Outcome? Cc1cnc(NC(=O)Nc2cc(Br)c(C)cc2OCC2CNCCO2)cn1 (centres undefined)
class 1

Call for entry `COC(=O)N[C@H](C(=O)N1[C@@H]2CC[C@@H](C2)[C@H]1c1nc2ccc(-c3ccc4c(c3)C(F)(F)c3cc(-c5cnc([C@@H]6CCC7(CC7)N6C(=O)[C@@H](NC(=O)OC)C(C)C)[nH]5)ccc3-4)cc2[nH]1)C(C)C` :
class 1
